ASSAY OVERVIEW: small molecules captured by biotinylated probe aFGF2 – biochemical, small-molecule microarray, fluorescence 635/667, stem cell growth factor project, primary screen (AID 1067);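 further: measures binding of biotinylated aFGF2 protein to printed compounds on slides; z-score merges feature fluorescence and signal-to-noise across triplicate slides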
CONDITION SET: higher = more signal
ASSAY ENDPOINT: composite z-score
Answers are plain numbers.

>  <MOLECULE>
CC(C)N1C(=O)C[C@@](C(=O)O)(c2ccc([N+](=O)[O-])cc2)[C@H]1c1ccc(CO)cc1

>  <composite z-score>
-0.031

$$$$
>  <MOLECULE>
CC1CC/C=C\[C@H]2OC34C=CCN(C(C)C)C(=O)[C@H]3N(CCO)C(=O)[C@@H]4C2C(=O)O1 (some centres not stated)

>  <composite z-score>
-0.159

$$$$
>  <MOLECULE>
CC(CO)N1C(=O)[C@]2(C)C3C(=O)OCCC/C=C\[C@H]3OC23C=CCN(c2ccc(Cl)cc2)C(=O)[C@@H]13 (some centres not stated)

>  <composite z-score>
-0.19

$$$$
>  <MOLECULE>
CC(C)C(CO)N1C(=O)[C@@H]2C3C(=O)OCCC/C=C\[C@H]3OC23C=CCN(c2ccc4ccccc4c2)C(=O)[C@@H]13 (some centres not stated)

>  <composite z-score>
-0.076

$$$$
>  <MOLECULE>
CN1C2C=C(CCCO)C(C3C(=O)N(C(N)=O)C(=O)C32)C1C1CC1 (configuration not stated)

>  <composite z-score>
-0.0959

$$$$
>  <MOLECULE>
CC(C)[Si]1(C(C)C)OCc2cc(C3CC3)nc(-c3ccc(Oc4ccccc4)cc3)c21

>  <composite z-score>
-0.207

$$$$
>  <MOLECULE>
CCOC(=O)C[C@H]1[C@H](OC(=O)c2cc3ccccc3oc2=O)[C@@H](NC(=O)c2ccc3ccccc3n2)c2cc(OCCCO)ccc2N1C(=O)Cc1ccc(OC)cc1

>  <composite z-score>
-0.0107

$$$$
>  <MOLECULE>
COc1ccc(C#Cc2ccc3c(c2)[C@]2(C(=O)N3)[C@H](c3ccc(OCCO)cc3)N3[C@H](c4ccccc4)[C@H](c4ccccc4)OC(=O)[C@H]3[C@@H]2C(=O)NC[C@H](O)c2ccccc2)cc1

>  <composite z-score>
-0.0276

$$$$

Please state composite z-score for every molecule in the list that follows.
1. O=C1C2C=CC(C(O)c3ccco3)N(Nc3ccccc3F)C2C(=O)N1c1ccccc1 (configuration not stated)
2. COc1cc(NN2C(C(O)c3ccc(N(C)C)cc3)C=CC3C(=O)N(c4ccccc4)C(=O)C32)cc(OC)c1OC (configuration not stated)

Given back:
1. 0.134
2. 0.107

Please state composite z-score for every molecule in the list that follows.
1. [N-]=[N+]=Nc1ccccc1C[C@]1(C(=O)O)COC(c2ccc(OCCCO)cc2)=N1
2. C=CCC(OC(C)=O)[C@@H]1[C@@H](N(Cc2ccc(-c3ccccc3)cc2)C(=O)c2ccc(-c3ccccc3)cc2)c2cc(OCCCO)ccc2N1C(=O)c1ccc2ccccc2c1 (some centres not stated)
3. COc1cc(NN2C(C(O)c3cc(OC)c(OC)c(OC)c3)C=CC3C(=O)N(C)C(=O)C32)cc(OC)c1OC (configuration not stated)
4. [N-]=[N+]=NCc1ccccc1[C@@H]1OC(c2ccc(OCCCO)cc2)=N[C@]1(CCS(=O)(=O)c1ccccc1)C(=O)O
5. COC(=O)[C@@]1(Cc2ccc(F)cc2)[C@H]2c3cc(C(=O)N(C)C)n(CCc4ccc(OC)c(Br)c4)c3C[C@H]2CN1C(=O)c1ccccc1
6. CC(C)C(CO)N1C(=O)[C@@H]2[C@H]3C(=O)OCC=C[C@H]3OC23C=CCN(c2ccc(Cl)cc2)C(=O)[C@@H]13 (some centres not stated)
7. CC(C)c1ccc(NN2C(C(O)c3ccc(C#N)cc3)C=CC3C(=O)N(c4ccccc4)C(=O)C32)cc1 (configuration not stated)
8. CC(C)N1C(=O)C[C@@](C(=O)NC2CC2)(c2ccc([N+](=O)[O-])cc2)[C@H]1c1ccc(CO)cc1

Given back:
1: -0.11; 2: -0.128; 3: -0.0613; 4: 0.0116; 5: 0.361; 6: -0.141; 7: 0.105; 8: -0.111

Please state composite z-score for every molecule in the list that follows.
1. COCC(=C=CC[C@H](O)c1ccc(CO)o1)CCO
2. CCCCNC(=O)c1ccc(C#CC(C)(C)C)c(OC(C)=O)c1
3. O=C1NC(=O)C2C1C=CC(C(O)c1ccco1)N2Nc1ccc(Cl)cc1Cl (configuration not stated)
4. O=C1OCCC=C[C@H]2OC34C=CCN(Cn5nnc6ccccc65)C(=O)[C@H]3N(CCCO)C(=O)[C@@H]4C12 (some centres not stated)

Given back:
1. 0.0154
2. -0.132
3. -0.0375
4. -0.116

Ref: PubChem BioAssay
